- experimental-details: small molecules captured by biotinylated probe aFGF2 – biochemical, small-molecule microarray, fluorescence 635/667, stem cell growth factor project, primary screen (AID 1067);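 further: measures binding of biotinylated aFGF2 protein to printed compounds on slides; z-score merges feature fluorescence and signal-to-noise across triplicate slides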
- details: higher = more signal
Would you mind telling me the reported composite z-score of each entry?
// keep it numeric: no unit symbol after the value

Task item: Name the reported composite z-score value associated with the compound COCC(=C=CC[C@H](O)c1cccc(OCCO)c1)C[C@H](O)c1cc(Cl)cc(Cl)c1O
Reply: -0.045

Task item: Name the reported composite z-score value associated with the compound C=CCOC(=O)[C@H]1[C@@H]2C(=O)O[C@@H](c3ccccc3)[C@@H](c3ccccc3)N2[C@@H](c2ccc(OCCOC(=O)[C@@H]3C[C@@H]4C(=O)N5CCC[C@H]5C(=O)N4[C@@H]3c3cccc(OCCO)c3)cc2)[C@]12C(=O)Nc1ccc(I)cc12
Reply: -0.104

Task item: Name the reported composite z-score value associated with the compound CO[C@H]1O[C@H](CO)[C@@H](OC(=O)Nc2ccccc2)[C@@H]2OC(=O)[C@@H](Cc3ccc4ccccc4c3)C/C=C/C[C@H](Cc3ccc4ccccc4c3)C(=O)O[C@@H]12
Reply: 0.126

====

- experimental-details: budding yeast growth changes without added modifier – OD600, strain BY4716, 24 h, basal condition, primary screen (AID 1173)
- details: S. cerevisiae BY4716 growth, OD600, 24 h, called active from +8 up or from −8 down
Activity calls are given as the source filed them.
# output must be one of YES (active), NO (inactive)

Task item: Dear colleague, could you share the recorded outcome for COC(=O)c1c2oc(c1C(=O)OC)C(=O)N[C@@H](C(C)C)Cn1cc(nn1)C1(CCCCC1)NC(=O)N[C@H](CO)CC2 when you have a moment?
Reply: NO

Task item: Dear colleague, could you share the recorded outcome for O=C1NC(=O)C2C1C=CC(C(O)c1ccc(I)cc1)N2Nc1ccc(Cl)cc1Cl (stereo not drawn) when you have a moment?
Reply: YES

Task item: Dear colleague, could you share the recorded outcome for NCCCCCCNC(=O)[C@H]1C[C@H]2C(=O)N[C@@H](Cc3ccccc3)C(=O)N2[C@H]1c1cccc(OCCO)c1 when you have a moment?
Reply: NO

Task item: Dear colleague, could you share the recorded outcome for C=CC[C@]1(C(=O)N2CCOCC2)N=C(c2ccc(OCCCO)cc2)O[C@H]1c1ccccc1N=[N+]=[N-] when you have a moment?
Reply: NO

Task item: Dear colleague, could you share the recorded outcome for CO[C@H]1O[C@H](CO)[C@@H](OC(=O)Nc2cccc(F)c2)[C@H](OC(=O)Nc2ccccc2)[C@H]1OC(=O)Nc1ccccc1 when you have a moment?
Reply: NO

Task item: Dear colleague, could you share the recorded outcome for CC(C)[Si](C#C[Si](C(C)C)(C(C)C)C(C)C)(O[C@H](C)c1cn(Cc2ccccc2)nn1)C(C)C when you have a moment?
Reply: NO

Task item: Dear colleague, could you share the recorded outcome for O=C1O[C@H](c2ccccc2)[C@H](c2ccccc2)N2[C@H]1[C@@H](C(=O)NC[C@H](O)c1ccccc1)[C@]1(C(=O)Nc3ccc(C#CC4=CCCCC4)cc31)[C@H]2c1ccccc1OCCO when you have a moment?
Reply: NO

Task item: Dear colleague, could you share the recorded outcome for COc1ccccc1CN1C(=O)c2ccccc2[C@@H](C(=O)NCc2ccccc2)[C@@H]1c1ccc(CO)cc1 when you have a moment?
Reply: NO

Task item: Dear colleague, could you share the recorded outcome for CCOc1cc(C(O)C2C=CC3C(=O)N(c4ccccc4)C(=O)C3N2Nc2ccc(C(C)C)cc2)ccc1O (stereo not drawn) when you have a moment?
Reply: NO

Task item: Dear colleague, could you share the recorded outcome for [N-]=[N+]=NCc1ccccc1[C@H]1OC(c2ccc(OCCCO)cc2)=N[C@@]1(Cc1ccccc1)C(=O)N1CCCCC1 when you have a moment?
Reply: NO

Task item: Dear colleague, could you share the recorded outcome for COC(=O)C[C@H]1O[C@@H](CCc2ccccc2)[C@@H](C)[C@@H]1[Si](C)(C)c1ccc(OC)cc1 when you have a moment?
Reply: NO

Task item: Dear colleague, could you share the recorded outcome for CC(=O)n1cc(C(O)C2C=CC3C(=O)NC(=O)C3N2Nc2ccccn2)c2ccccc21 (stereo not drawn) when you have a moment?
Reply: NO

Task item: Dear colleague, could you share the recorded outcome for [N-]=[N+]=Nc1ccccc1C[C@@]1(C(=O)N2CCCCC2)N=C(c2ccc(OCCCO)cc2)O[C@@H]1c1ccccc1N=[N+]=[N-] when you have a moment?
Reply: NO

====

- Tested on: glycogen synthase kinase-3 (GSK3A per assay name; protocol says GSK3B)
- experimental-details: compounds binding glycogen synthase kinase-3 – biochemical, small-molecule microarray, 635 nm fluorescence, GSK3A, primary screen (AID 1103); further: the record names both GSK3A and GSK3B
- details: fluorescence 635 nm, higher = more signal
Labels assigned by composite z-score range: lowest = under 0.2, middle = from 0.2 up to 0.9, highest = 0.9 and over

Task item: # bin label for CCCCN1CC=CC23O[C@@H]4/C=C\CCCOC(=O)C4[C@H]2C(=O)N(CCCO)[C@@H]3C1=O (some centres undefined)
Reply: lowest

Task item: # bin label for COCCOC(=O)N1C(=O)[C@@]2(c3cc(C#CC4=CCCCC4)ccc31)[C@H](c1ccc(OCCO)cc1)N1[C@H](c3ccccc3)[C@H](c3ccccc3)OC(=O)[C@H]1[C@@H]2C(=O)N1CCc2cc(OC)c(OC)cc2C1
Reply: highest

Task item: # bin label for CN(C)CCCC[C@@H]1NC(=O)[C@H]2C[C@@H](C(=O)NCCCCCN)[C@@H](c3cccc(OCCO)c3)N2C1=O
Reply: highest

Task item: # bin label for Cc1ccc(C2C3C(=O)CC4C(=O)N(c5ccccc5)C(=O)C4C3CN2S(=O)(=O)c2ccc(C)cc2)cc1 (centres undefined)
Reply: middle

Task item: # bin label for CCN(CC)c1ccc(N2CC=CC34O[C@@H]5C=CCOC(=O)[C@@H]5[C@H]3C(=O)N(CCCCCCO)[C@@H]4C2=O)cc1 (some centres undefined)
Reply: lowest

Task item: # bin label for COc1ccc(NN2C(C(O)c3ccc(N(C)C)cc3)C=CC3C(=O)N(C4CCCCC4)C(=O)C32)cc1 (centres undefined)
Reply: highest

Task item: # bin label for CC(C)[Si](C#C[Si](C(C)C)(C(C)C)C(C)C)(O[C@H](C)c1cn(Cc2ccccc2)nn1)C(C)C
Reply: middle

Task item: # bin label for COCCOC(=O)N1C(=O)[C@@]2(c3cc(C#CC4(O)CCCCCC4)ccc31)[C@H](c1ccccc1OCCO)N1[C@H](c3ccccc3)[C@H](c3ccccc3)OC(=O)[C@H]1[C@@H]2C(=O)N1CCc2cc(OC)c(OC)cc2C1
Reply: highest

Task item: # bin label for NCCCCCNC(=O)[C@H]1C[C@H]2C(=O)N3CCC[C@H]3C(=O)N2[C@H]1c1ccc(O)cc1
Reply: highest

Task item: # bin label for CCOC(=O)C[C@H]1[C@H](OC(=O)c2ccc(-c3ccccc3)cc2)[C@@H](NC(=O)c2ccccc2)c2cc(OCCCO)ccc2N1C(=O)Cc1ccc(OC)cc1
Reply: lowest

Task item: # bin label for O=C1C2C=CC(C(O)c3cc(C(F)(F)F)cc(C(F)(F)F)c3)N(Nc3ccccc3)C2C(=O)N1c1ccccc1 (centres undefined)
Reply: middle

Task item: # bin label for Cc1ccc(S[C@]2(C(=O)NCC(C)C)CC(=O)N(Cc3cc(C(F)(F)F)cc(C(F)(F)F)c3)[C@@H]2c2ccc(CO)cc2)cc1
Reply: lowest

Task item: # bin label for O=C1C2C=CC(C(O)C=Cc3ccc([N+](=O)[O-])cc3)N(n3cnnc3)C2C(=O)N1Cc1ccccc1 (centres undefined)
Reply: middle

Task item: # bin label for CCCCC(=C=CC[C@@H](O)c1cccc(OCCO)c1)C[C@@H](O)c1ccccn1
Reply: middle

====

- experimental-details: compound effects on lung adenocarcinoma cell viability – A549, calcein-AM fluorescence, 48 h, basal, profiling panel (AID 1162); further: test concentration not given here
- details: higher = more signal
Would you mind telling me the reported z-score of each entry?
// keep it numeric: no unit symbol after the value

Task item: Name the reported z-score value associated with the compound CCCCCCc1nc(-c2ccc(-c3ccc(Cl)c(Cl)c3)o2)c(C)c2c1[Si](C(C)C)(C(C)C)OC2
Reply: -2.55

Task item: Name the reported z-score value associated with the compound [N-]=[N+]=Nc1ccccc1C[C@]1(C(=O)N2CCCCC2)COC(c2ccc(OCCCO)cc2)=N1
Reply: -0.611

Task item: Name the reported z-score value associated with the compound CC#CC(=O)Oc1ccc(Br)cc1C=CC(=O)OCC
Reply: -2.1

Task item: Name the reported z-score value associated with the compound COc1ccc([Si](C)(C)[C@H]2[C@H](CCn3cc([C@H](O)c4ccccc4)nn3)O[C@@]3(C(=O)N(C)c4ccccc43)[C@@H]2C)cc1
Reply: 0.239

====

- system: Calmodulin-1 (Homo sapiens)
- experimental-details: small molecules binding calmodulin-1 with EGTA – biochemical, small-molecule microarray, Cy5-labelled CALM1, profiling panel (AID 1111);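 further: labelled calmodulin applied in Tris saline Tween buffer holding calcium plus EGTA and DTT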
- details: Cy5-CALM1 binding fluorescence, higher = more signal
Labels assigned by composite z-score range: lo (below -0.3), med (-0.3 to below 1), hi (1 or more)

Task item: # bin label for OB1C=CCC(CCc2ccccc2)O1 (configuration not stated)
Reply: lo

Task item: # bin label for O=C1O[C@H](c2ccccc2)[C@H](c2ccccc2)N2[C@H]1[C@@H](C(=O)NC[C@H](O)c1ccccc1)[C@]1(C(=O)Nc3ccccc31)[C@H]2c1ccc(O)cc1
Reply: hi

Task item: # bin label for [N-]=[N+]=Nc1ccccc1C[C@]1(C(=O)NCc2ccccc2)N=C(c2ccc(OCCCO)cc2)O[C@H]1c1ccccc1N=[N+]=[N-]
Reply: hi

Task item: # bin label for O=C(CS)NCCCCCNC(=O)[C@H]1C[C@H]2C(=O)NCC(=O)N2[C@H]1c1ccc(O)cc1
Reply: med

Task item: # bin label for CC(C)(C)OC(=O)CC[C@@]1(C(=O)N2CCCCC2)N=C(c2ccc(OCCCO)cc2)O[C@@H]1c1ccccc1
Reply: hi

Task item: # bin label for C=CCN(Cc1ccccc1)C(=O)C(c1cccs1)N(C(=O)/C=C\C(=O)O)c1ccc(CCOCCO)cc1 (configuration not stated)
Reply: lo

Task item: # bin label for Cc1ccc(/C=C/C=O)cc1
Reply: med

Task item: # bin label for COC(=O)[C@@]1(Cc2ccc(OC)cc2)[C@H]2c3cc(C(=O)N(C)C)n(Cc4ccc(C(F)(F)F)nc4)c3C[C@H]2CN1C(=O)c1ccccc1
Reply: med

Task item: # bin label for CN(C)CCCCNC(=O)[C@@H]1C[C@@H]2C(=O)N[C@@H](CCCCN)C(=O)N2[C@@H]1c1ccc(O)cc1
Reply: hi

Task item: # bin label for COCC(=C=CC[C@@H](O)c1ccc(OCCO)cc1)C[C@@H](O)c1ccccn1
Reply: lo

Task item: # bin label for O=C1OCC=C[C@H]2OC34C=CCN(CCN5CCOCC5)C(=O)[C@H]3N(CCO)C(=O)[C@@H]4[C@@H]12 (some centres not stated)
Reply: lo

Task item: # bin label for COc1cc2c(cc1O)C(c1cccs1)N(Cc1cccc(OC(F)(F)F)c1)CC2 (configuration not stated)
Reply: med

Task item: # bin label for CC(C)OC(=O)C=C1C[C@@H](c2cccc(Cl)c2)O[C@@H](c2cccc(Cl)c2)O1
Reply: hi

Task item: # bin label for CN(C)C(=O)[C@]1(Cc2ccccc2)N=C(c2ccc(OCCCO)cc2)O[C@@H]1c1ccccc1N=[N+]=[N-]
Reply: hi

Task item: # bin label for O=C1OCCC=C[C@H]2OC34C=CCN(Cn5nnc6ccccc65)C(=O)[C@H]3N(CCO)C(=O)[C@@H]4C12 (some centres not stated)
Reply: lo

Task item: # bin label for COC(=O)[C@@]1(Cc2ccc(OC)cc2)[C@H]2c3cc(C(=O)N4CCCC4)n(CCc4ccc(O)c(O)c4)c3C[C@H]2CN1C(=O)c1ccccc1
Reply: hi

Task item: # bin label for C[N+](C)(C)CCCC[C@@H]1NC(=O)[C@@H]2C[C@H](C(=O)NCCCCCCNC(=O)CS)[C@H](c3ccc(O)cc3)N2C1=O
Reply: lo
